molecular target: T1, human activated protein C (human, UniProt P04070 43-197; P04070 212-461); assay: SPR (Biacore), 1:1 binding model
T1 construct: also called human aPC; human APC
measured-endpoint: kon (M⁻¹ s⁻¹)
Report the figure in M⁻¹ s⁻¹ without appending any unit label.

In: Look up and report measured kon for this entry: Hu1573-5 (antibody, V domains shown, Humanized IgG, human gamma 1 / kappa constant regions by vectors pCP-hCg1 and pCP-hck; also called H1573VH.1B + H1573Vk.2B) VH: EVQLVESGGGLVQPGGSLRLSCAASGFTFSNYYLNWVRQAPGKGLEWVGDIRLKSNNYEKHYAESVKGRFTISRDDSKNSVYLQMNSLKTEDTAVYYCIREGDYFDYWGQGTTVTVSS VL: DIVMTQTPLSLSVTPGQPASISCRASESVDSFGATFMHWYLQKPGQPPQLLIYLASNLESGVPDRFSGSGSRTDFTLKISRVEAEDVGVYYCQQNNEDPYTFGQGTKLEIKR
Out: 1.54e+06

In: Quick one: give measured kon for Hu1573-13 (antibody, V domains shown, Humanized IgG, human gamma 1 / kappa constant regions by vectors pCP-hCg1 and pCP-hck; also called H1573VH.1E + H1573Vk.2A) VH: EVQLVESGGGLVQPGGSLRLSCAASGFTFSNYYLNWVRQAPGKGLEWVADIRLKSNNYEKHYAESVKGRFTISRDDSKNSVYLQMNSLKTEDTAVYYCIREGDYFDYWGQGTTVTVSS VL: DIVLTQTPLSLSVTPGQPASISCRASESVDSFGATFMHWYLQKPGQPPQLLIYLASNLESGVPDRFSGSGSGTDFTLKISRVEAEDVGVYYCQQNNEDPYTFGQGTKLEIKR
Out: 1.4e+06

In: Respond only with kon recorded for Hu1573-7 (antibody, V domains shown, Humanized IgG, human gamma 1 / kappa constant regions by vectors pCP-hCg1 and pCP-hck; also called H1573VH.1C + H1573Vk.2A) VH: EVQLVESGGGLVQPGGSLRLSCAASGFTFSNYYLNWVRQAPGKGLEWVADIRLKSNNYEKHYAESVKGRFTISRDDSKNSLYLQMNSLKTEDTAVYYCIREGDYFDYWGQGTTVTVSS VL: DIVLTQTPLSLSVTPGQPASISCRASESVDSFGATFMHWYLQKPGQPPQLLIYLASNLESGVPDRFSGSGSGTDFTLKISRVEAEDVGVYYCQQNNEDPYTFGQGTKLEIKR
Out: 1.36e+06

In: For the binder Hu1573-1 (antibody, V domains shown, Humanized IgG, human gamma 1 / kappa constant regions by vectors pCP-hCg1 and pCP-hck; also called H1573VH.1 + H1573Vk.2C) VH: EVQLVESGGGLVQPGGSLRLSCAASGFTFSNYYLNWVRQAPGKGLEWVGDIRLKSNNYEKHYAESVKGRFTISRDDSKNSLYLQMNSLKTEDTAVYYCAREGDYFDYWGQGTTVTVSS VL: DIVLTQTPLSLSVTPGQPASISCRASESVDSFGATFMHWYLQKPGQPPQLLIYLASNLESGVPDRFSGSGSRTDFTLKISRVEAEDVGVYYCQQNNEDPYTFGQGTKLEIKR , give its reported kon.
Out: 1.46e+06

In: Find the measured kon of Hu1573-9 (antibody, V domains shown, Humanized IgG, human gamma 1 / kappa constant regions by vectors pCP-hCg1 and pCP-hck; also called H1573VH.1D + H1573Vk.2) VH: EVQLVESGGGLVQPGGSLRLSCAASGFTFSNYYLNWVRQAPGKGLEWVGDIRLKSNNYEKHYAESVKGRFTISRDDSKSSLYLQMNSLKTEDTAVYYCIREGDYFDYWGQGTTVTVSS VL: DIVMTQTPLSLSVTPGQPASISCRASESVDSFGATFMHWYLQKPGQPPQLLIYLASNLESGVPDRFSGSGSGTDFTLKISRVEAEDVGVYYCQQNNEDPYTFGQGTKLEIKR and report it.
Out: 1.45e+06

In: Specify kon for Hu1573-8 (antibody, V domains shown, Humanized IgG, human gamma 1 / kappa constant regions by vectors pCP-hCg1 and pCP-hck; also called H1573VH.1C + H1573Vk.2B) VH: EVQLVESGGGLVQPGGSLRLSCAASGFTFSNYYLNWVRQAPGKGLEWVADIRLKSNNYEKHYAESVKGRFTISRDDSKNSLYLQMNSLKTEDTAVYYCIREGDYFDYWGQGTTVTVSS VL: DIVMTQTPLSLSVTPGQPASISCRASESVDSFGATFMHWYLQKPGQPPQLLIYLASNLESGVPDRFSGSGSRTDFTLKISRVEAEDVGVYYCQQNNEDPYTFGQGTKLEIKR and stop.
Out: 1.49e+06

Origin of values: patent USRE49099
